Measured values drawn from ChEMBL document CHEMBL1201862 for this set.

List of EC50 values.
Molecular target: Zinc finger protein mex-5 (Caenorhabditis elegans, UniProt Q9XUB2)
Sequence (Q9XUB2 whole entry): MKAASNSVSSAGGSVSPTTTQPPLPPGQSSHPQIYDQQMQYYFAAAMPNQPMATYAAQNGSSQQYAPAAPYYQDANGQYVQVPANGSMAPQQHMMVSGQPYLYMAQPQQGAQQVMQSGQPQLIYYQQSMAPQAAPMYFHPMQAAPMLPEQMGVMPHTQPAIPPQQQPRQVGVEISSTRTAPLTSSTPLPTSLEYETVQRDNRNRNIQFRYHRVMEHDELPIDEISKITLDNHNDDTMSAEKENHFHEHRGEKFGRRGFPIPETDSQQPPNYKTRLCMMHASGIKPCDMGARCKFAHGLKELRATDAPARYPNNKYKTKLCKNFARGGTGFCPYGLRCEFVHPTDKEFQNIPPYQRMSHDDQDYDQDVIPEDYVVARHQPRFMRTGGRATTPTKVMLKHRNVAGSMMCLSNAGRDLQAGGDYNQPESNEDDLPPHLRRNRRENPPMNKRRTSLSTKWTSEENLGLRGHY
Test: potency of MEX-5 RNA-binding blockers – biochemical, C. elegans, fluorescence polarization, dose response (AID 1960)
Activity calls are given as the source filed them. Cut-off read from the data, not from the text of the source: actives have a measured EC50 and inactives only a lower limit.
resultType: EC50

> print(dat)
                                    compound                              targetentity  resulttype        experimentalvalue
 1            CCCCCN1C=CC=C/C1=C\C=C(C#N)C#N  Zinc finger protein mex-5 (Caenorhabditis elegans, UniProt Q9XUB2)        EC50    > 300 µM (not active)
 2  CC1CN(c2nc3ccccc3nc2C(C#N)C(=O)NC2CCCCC2)CC(C)O1 (stereo not given)  Zinc finger protein mex-5 (Caenorhabditis elegans, UniProt Q9XUB2)        EC50  > 300 µM (inconclusive)
 3       Oc1ccc(/C=N/NC(=S)Nc2cccnc2)c(O)c1O  Zinc finger protein mex-5 (Caenorhabditis elegans, UniProt Q9XUB2)        EC50        0.086 µM (active)
 4  COc1ccc(NC(=O)c2sc3nc(-c4cccnc4)ccc3c2N)cc1  Zinc finger protein mex-5 (Caenorhabditis elegans, UniProt Q9XUB2)        EC50         4.79 µM (active)
 5  COc1cc(OC)c(C2C(C#N)=C(N)OC3=C2C(=O)CC(C)(C)C3)cc1OC (stereo not given)  Zinc finger protein mex-5 (Caenorhabditis elegans, UniProt Q9XUB2)        EC50    > 300 µM (not active)
 6  CN1CCc2cc(O)cc3c2[C@H]1Cc1ccc(O)c(O)c1-3  Zinc finger protein mex-5 (Caenorhabditis elegans, UniProt Q9XUB2)        EC50         3.17 µM (active)
 7  Cc1n[nH]c(NNC(=O)c2ccccc2)c1[N+](=O)[O-]  Zinc finger protein mex-5 (Caenorhabditis elegans, UniProt Q9XUB2)        EC50         4.96 µM (active)
 8  CN1CCc2c(sc3c2C(=O)NC(c2ccccn2)N3)C1 (stereo not given)  Zinc finger protein mex-5 (Caenorhabditis elegans, UniProt Q9XUB2)        EC50         14.3 µM (active)
 9  COc1cc2c(cc1OC)C(c1ccc(-c3ccc(Cl)cc3Cl)o1)=NCC2  Zinc finger protein mex-5 (Caenorhabditis elegans, UniProt Q9XUB2)        EC50    > 300 µM (not active)
10  O=C(O)c1ccc(-n2cccc2/C=C2/SC(=O)N(CC(=O)N3CCCC3)C2=O)cc1  Zinc finger protein mex-5 (Caenorhabditis elegans, UniProt Q9XUB2)        EC50         78.2 µM (active)
